- System: E. faecium
- Experiment description: In vitro MIC testing, antibacterial spectrum of activity
- Format: cell-based
- Test parameters: Enterococcus faecium, VRE
Reported metric: MIC50

[
  {
    "Compound": "CN(C)[C@@H]1C(O)=C(C(N)=O)C(=O)[C@@]2(O)C(O)=C3C(=O)c4c(O)cccc4[C@@](C)(O)[C@H]3C[C@@H]12 [Tetracycline, tetracycline]",
    "Result value": "2 mg/L"
  },
  {
    "Compound": "CN[C@H](CC(C)C)C(=O)N[C@H]1C(=O)N[C@@H](CC(N)=O)C(=O)N[C@H]2C(=O)N[C@H]3C(=O)N[C@H](C(=O)N[C@H](C(=O)O)c4cc(O)cc(O)c4-c4cc3ccc4O)[C@H](O)c3ccc(c(Cl)c3)Oc3cc2cc(c3O[C@@H]2O[C@H](CO)[C@@H](O)[C@H](O)[C@H]2O[C@H]2C[C@](C)(N)[C@H](O)[C@H](C)O2)Oc2ccc(cc2Cl)[C@H]1O [Vancomycin]",
    "Result value": "> 64 mg/L"
  },
  {
    "Compound": "CC[C@H]1OC(=O)[C@H](C)[C@@H](O[C@H]2C[C@@](C)(OC)[C@@H](O)[C@H](C)O2)[C@H](C)[C@@H](O[C@@H]2O[C@H](C)C[C@H](N(C)C)[C@H]2O)[C@](C)(O)C[C@@H](C)C(=O)[C@H](C)[C@@H](O)[C@]1(C)O [Erythromycin]",
    "Result value": "> 32 mg/L"
  },
  {
    "Compound": "CCC[C@@H]1C[C@@H](C(=O)N[C@@H]([C@H]2O[C@H](SC)[C@H](O)[C@@H](O)[C@H]2O)[C@H](C)Cl)N(C)C1 [Clindamycin]",
    "Result value": "> 32 mg/L"
  }
]
